Source listed as the supplement of paper PMC12455559.

Experiment: PET hydrolysis, aromatic products released after 48 h (umol product/mg enzyme); higher = more PET depolymerization activity
Details: substrate: cryPow; 60 °C; pH 5.5
Here the recorded PET hydrolysis is given for each entry.

PRIMARY_SEQUENCE	PET hydrolysis
SAQVTRQAAGSYARGPAPTLAGIRAALGPFAYSTVTVTAAQAGGAFGGGTIYYPDDTSQGTFGGVAAVPGYQSAEKAVAWLGPRLASQGFVVITIATNGLTDQPTARGKQLLGALDYLTAQSPAAVRQRLDPNRLAVTGHSMGGGGTLYAAWTRPSLKAAVPLAPWHTIKNWSGITVPTLVQGGTQDTTAQVGTFAEPIYQSLTGARERAYAEIADAAHGTFVRENPLIGALEVAWLKRFVDDDGRYEQFLCPAPADSELTEYRDSCPSS [DP009]	< 3

Next sequence, PET hydrolysis to be filled in.
Param item = ASPYERGPNPTAASVSATTGPFAIASVSVARGNGFGGGVIYYPTATNQGTFGGIAISPGLNGTWAGIAWLGPRLASQGFVVFGIETNNLNDSPTSRGTQLLAALDYLTQRSTVRTRVDAGRLAVMGHSMGGGGALDAALRRPSLQAAIGNAPHLPSGTLSNDRVPTMIYAMQNDTLVPPSRLTTLYNSIPATTERGYILVTGAGHNYIGQPSTTLARTMIPWFKIFIDDDTRYSQFLCPMSNQSGISQYRNSCPLS [ESM160] ; retrieve measured PET hydrolysis. < 3

* * *

Experiment: PET hydrolysis, aromatic products released after 48 h (umol product/mg enzyme); higher = more PET depolymerization activity
Conditions: substrate: aFilm; 40 °C; pH 5.5
Here the recorded PET hydrolysis is given for each entry.

Example cases with answers are listed next.
PRIMARY_SEQUENCE	ENDPOINT	VALUE
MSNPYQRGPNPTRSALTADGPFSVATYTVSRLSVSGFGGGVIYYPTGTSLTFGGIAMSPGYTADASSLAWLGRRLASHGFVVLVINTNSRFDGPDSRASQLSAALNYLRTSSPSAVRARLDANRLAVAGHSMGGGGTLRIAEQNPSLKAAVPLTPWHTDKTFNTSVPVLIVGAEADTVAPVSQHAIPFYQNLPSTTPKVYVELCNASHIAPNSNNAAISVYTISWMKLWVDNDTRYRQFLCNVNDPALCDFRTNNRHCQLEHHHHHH [LCC-ICCG]	PET hydrolysis	17.4
GQAPTTAAQVRASAFAKGPDPTEQTIKAQRGPFQIKQLSVAAQSGRGFNRGTIYYPTDTGQGTYGAIAVIPGFLEPEFITSWYGPTLASYGFVVMTLEPFAITDFPDPRSNQLLAAVDWLAADSPVKAQVDPNRLAVMGHSMGGGGALLAASKRPSLKAAVPLAPWNLYADFAGVTVPTLVIGADNDFIAPVGMHADPMYASIKASPNEGYLKLKNADHFTVNSYSATLTKFTVSWMKRYVDEDTRYTQFLCPAPQPDPSFASFQMTCPS [TEP173]	PET hydrolysis	< 3

Next sequence, PET hydrolysis to be filled in.
Param item = QYQKGPDPTVSALERTGSFATRTTTVSRTSASGFGGGTIYYPTASGSYGAIAISPGFTAYQSSISWMGTRLASHGFVVITIDTITTSDQPDSRGRQLKAALDKVVSLSRSSSSPIYNKVDTTRLAVAGHSMGGGGTLAAARDYPSLKAAVPLAPWHTTKSWSRVTVPTLIIGGSTDTIASVGLHSIPFYTSLPSSTNKAYMELSGEGHFFPQTSSNYPLVGRYMISWFKRFVDGDSRYSPFLCGAQHQADLGLFSDISDYRENCPY [ESM169] ; retrieve measured PET hydrolysis. 6
